Reported Emax values are given for each entry in this list.
Target: NMDAR2B expressing HEK cell membranes (Homo sapiens, UniProt Q05586+Q13224)
Construct: expressed in transfected cells; host or cells: HEK cells (membrane extract)
Sequence (Q13224 27-1484, other chains not shown): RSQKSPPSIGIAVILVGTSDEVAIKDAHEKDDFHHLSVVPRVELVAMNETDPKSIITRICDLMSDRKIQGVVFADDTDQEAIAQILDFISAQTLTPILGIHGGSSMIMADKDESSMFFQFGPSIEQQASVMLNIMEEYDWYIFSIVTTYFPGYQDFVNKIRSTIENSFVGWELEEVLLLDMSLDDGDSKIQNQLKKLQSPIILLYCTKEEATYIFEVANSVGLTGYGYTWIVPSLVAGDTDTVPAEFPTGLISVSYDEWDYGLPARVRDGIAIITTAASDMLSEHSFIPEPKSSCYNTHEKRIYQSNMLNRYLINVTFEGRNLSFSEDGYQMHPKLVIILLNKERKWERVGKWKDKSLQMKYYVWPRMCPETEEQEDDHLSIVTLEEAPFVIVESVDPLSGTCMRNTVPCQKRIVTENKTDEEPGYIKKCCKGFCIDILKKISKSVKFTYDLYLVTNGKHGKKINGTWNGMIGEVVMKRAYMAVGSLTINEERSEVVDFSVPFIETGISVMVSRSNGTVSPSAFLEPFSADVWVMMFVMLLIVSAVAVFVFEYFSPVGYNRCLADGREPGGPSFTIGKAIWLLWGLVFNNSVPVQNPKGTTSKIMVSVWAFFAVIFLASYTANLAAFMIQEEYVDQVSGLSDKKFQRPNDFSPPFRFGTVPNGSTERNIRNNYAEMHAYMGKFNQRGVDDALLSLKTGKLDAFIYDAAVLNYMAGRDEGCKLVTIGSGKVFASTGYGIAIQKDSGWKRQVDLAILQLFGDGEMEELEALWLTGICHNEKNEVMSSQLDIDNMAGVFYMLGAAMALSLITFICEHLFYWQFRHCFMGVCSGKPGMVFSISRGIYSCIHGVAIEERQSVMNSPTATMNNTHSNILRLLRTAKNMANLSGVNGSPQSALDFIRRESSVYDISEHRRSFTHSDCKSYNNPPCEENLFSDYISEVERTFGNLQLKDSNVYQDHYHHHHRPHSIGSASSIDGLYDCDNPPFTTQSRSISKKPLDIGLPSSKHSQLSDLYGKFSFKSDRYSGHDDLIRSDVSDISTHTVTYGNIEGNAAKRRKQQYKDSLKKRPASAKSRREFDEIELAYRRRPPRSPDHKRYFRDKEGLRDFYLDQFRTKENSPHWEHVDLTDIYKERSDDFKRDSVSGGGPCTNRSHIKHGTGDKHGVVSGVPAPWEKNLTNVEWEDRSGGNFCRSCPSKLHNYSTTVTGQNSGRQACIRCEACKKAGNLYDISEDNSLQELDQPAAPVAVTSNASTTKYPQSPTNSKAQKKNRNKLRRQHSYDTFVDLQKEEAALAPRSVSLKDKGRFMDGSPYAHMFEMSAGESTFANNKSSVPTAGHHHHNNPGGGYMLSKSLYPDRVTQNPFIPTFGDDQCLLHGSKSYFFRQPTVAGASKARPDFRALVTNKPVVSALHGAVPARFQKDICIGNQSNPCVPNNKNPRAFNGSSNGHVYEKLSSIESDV
Test: NMDAR agonist assay, [3H]MK-801 binding, NMDAR2B
Assay type: biochemical
Settings: 50 μM glutamate; relative to 1 mM glycine; read-out: NMDAR2B: % maximal [3H]MK-801 binding relative to 1 mM glycine
parameter.measured: Emax

compound="COc1ccc(CN2CC3(CC(N[C@H](C(=O)O)[C@@H](C)O)CN3C(=O)OC(C)(C)C)C2=O)cc1 (stereo partly shown) [CF]" parameter_measured=Emax result="< 100%"
compound="CNC(=O)[C@@H](NCC1CCC2(CNC2=O)N1C(=O)OC(C)(C)C)[C@@H](C)O (stereo partly shown) [BP]" parameter_measured=Emax result=0%
compound="O=C1NCC12CCC1(CNC1=O)N2Cc1ccc(F)cc1 (single isomer, unassigned) [DI]" parameter_measured=Emax result="< 100%"
compound="C[C@@H](O)[C@H](NCC1CCC2(CN(OCc3ccccc3)C2=O)N1C(=O)OC(C)(C)C)C(N)=O (stereo partly shown) [BI]" parameter_measured=Emax result=0%
compound="COc1ccc(CN2CC3(CC(N[C@H](C(N)=O)[C@@H](C)O)CN3C(=O)OC(C)(C)C)C2=O)cc1 (stereo partly shown) [CA]" parameter_measured=Emax result=0%
compound="C[C@@H](O)[C@@H](C(=O)N(C)C)N(C)CC1CCC2(CN(OCc3ccccc3)C2=O)N1C(=O)OC(C)(C)C (stereo partly shown) [BW]" parameter_measured=Emax result="> 100%"
compound="COc1ccc(CN2CC3(C[C@H](C(N)=O)CN3CC(C)C)C2=O)cc1 (stereo partly shown) [CJ]" parameter_measured=Emax result="< 100%"
compound="CNC(=O)C(NCC1CCC2(CNC2=O)N1)C(C)O (single isomer, unassigned) [CQ]" parameter_measured=Emax result="> 100%"
compound="COc1ccc(CN2C[C@@]3(C[C@H](C(N)=O)CN3CC(C)C)C2=O)cc1 [CI]" parameter_measured=Emax result="< 100%"
compound="CC(C)(C)OC(=O)N1C2(CCC13CNC3=O)CNC2=O (stereo not shown) [AA-1]" parameter_measured=Emax result=0%
compound="C[C@@H](O)[C@@H](C(N)=O)N(C)CC1CCC2(CN(OCc3ccccc3)C2=O)N1C(=O)OC(C)(C)C (stereo partly shown) [BU]" parameter_measured=Emax result="< 100%"
compound="CC(C)(C)OC(=O)N1C(C(N)=O)CCC12CN(OCc1ccccc1)C2=O (single isomer, unassigned) [BG]" parameter_measured=Emax result="< 100%"
compound="NC(=O)C1CCC2(CNC2=O)N1Cc1ccc(F)cc1 (single isomer, unassigned) [DG]" parameter_measured=Emax result="< 100%"
compound="COc1ccc(CN2CC3(CC(N[C@H](C(=O)O)[C@@H](C)O)CN3C(=O)OC(C)(C)C)C2=O)cc1 (single isomer, unassigned) [CE]" parameter_measured=Emax result="> 100%"
compound="NC(=O)C1CCC2(CNC2=O)N1 (single isomer, unassigned) [DA]" parameter_measured=Emax result="< 100%"
compound="CC(O)C(NCC1CCC2(CN(OCc3ccccc3)C2=O)N1)C(N)=O (single isomer, unassigned) [CK]" parameter_measured=Emax result="< 100%"
